The listing below reports Log AC50 (M) for compounds tested on Vero cells.
# unit: M | format: bare number

Problem: So what does the record say about Log AC50 (M) for NC1(c2ccc(-c3nc4ccn5c(=O)[nH]nc5c4cc3-c3ccccc3)cc2)CCC1 [NCGC00186465-01] ?
Solution: -4.7327

Problem: So what does the record say about Log AC50 (M) for COc1ccc(-c2oc3cc(O)c(OC)c(O)c3c(=O)c2OC)cc1O ?
Solution: -5.9327

Problem: So what does the record say about Log AC50 (M) for CC(C)(O)/C=C\C(=O)[C@](C)(O)[C@H]1[C@H](O)C[C@]2(C)[C@@H]3CC=C4[C@@H](C=C(O)C(=O)C4(C)C)[C@]3(C)C(=O)C[C@@]12C ?
Solution: -5.4827

Problem: So what does the record say about Log AC50 (M) for CC(C)=CCCC(C)(O)CCCC(C)(O)CCCC(C)(O)CCCC(C)(O)CCCC(C)(O)CCCC(C)(O)C(O)CC/C(C)=C/CC/C(C)=C/CO[C@@H]1O[C@H](CO)[C@@H](O)[C@H](O)[C@H]1O (some centres unmarked) ?
Solution: -5.4408

Problem: So what does the record say about Log AC50 (M) for CCCCCCCCCCCC(CC1OC(=O)C1CCCCCC)OC(=O)C(CC(C)C)NC=O (centres unmarked) ?
Solution: -4.5327

Problem: So what does the record say about Log AC50 (M) for Cc1ccc(C(=O)Nc2ccc(CN3CCN(C)CC3)c(C(F)(F)F)c2)cc1C#Cc1cnc2cccnn12 ?
Solution: -5.7327

Problem: So what does the record say about Log AC50 (M) for C/C(=C\CO)CC/C=C(\C)CCC(O)C(C)(O)CCCC(C)(O)CCCC(C)(O)CCCC(C)(O)CCCC(C)(O)CCCC(C)(O)CCCC(C)(C)O (centres unmarked) ?
Solution: -5.8408

Problem: So what does the record say about Log AC50 (M) for O=c1[nH]c2ccccc2n1C1CCN(CCCC(c2ccc(F)cc2)c2ccc(F)cc2)CC1 ?
Solution: -4.6827

Problem: So what does the record say about Log AC50 (M) for CC(C)(C)OC(=O)N[C@@H](Cc1ccc(O[S+](=O)([O-])c2cccc3cnccc23)cc1)C(=O)N1CCCN(C(=O)OC(C)(C)C)CC1 ?
Solution: -4.4327

Problem: So what does the record say about Log AC50 (M) for CC(C)(C)OC(=O)Nc1ccc(-c2cc(C(=O)NCCCCCCC(=O)NO)no2)cc1 ?
Solution: -5.6796

Problem: So what does the record say about Log AC50 (M) for Cc1ccc2c(c1)Cc1c(C(=O)NN3CCCCC3)nn(-c3ccc(Cl)cc3Cl)c1-2 ?
Solution: -5.3827

Problem: So what does the record say about Log AC50 (M) for O=C(Nc1ccc([N+](=O)[O-])cc1Cl)c1cc(Cl)ccc1O [NCGC00015735-11] ?
Solution: -6.4408

Problem: So what does the record say about Log AC50 (M) for O=C(CCCCCCNC(=O)c1cnc(N(c2ccccc2)c2ccccc2)nc1)NO ?
Solution: -4.7327

Problem: So what does the record say about Log AC50 (M) for CC1(C)CCC(C)(C)c2cc(NC(=O)c3ccc(C(=O)O)cc3)ccc21 [NCGC00181111-02] ?
Solution: -4.4327

Problem: So what does the record say about Log AC50 (M) for CC(=O)O[C@H]1C(=O)[C@@]2(C)C([C@H](OC(=O)c3ccccc3)[C@]3(O)C[C@H](OC(=O)[C@H](O)[C@@H](NC(=O)c4ccccc4)c4ccccc4)C(C)=C1C3(C)C)[C@]1(OC(C)=O)CO[C@@H]1C[C@@H]2O (some centres unmarked) ?
Solution: -4.6827

Problem: So what does the record say about Log AC50 (M) for CCOC(CN1C(=O)[C@](CC(=O)Nc2ccc(C)cc2)(NC(=O)Nc2ccc(C)cc2)c2ccccc21)OCC ?
Solution: -4.6327

Problem: So what does the record say about Log AC50 (M) for Cc1nc2cnc3ccc(C#Cc4cccnc4)cc3c2n1-c1ccc(C(C)(C)C#N)cc1 ?
Solution: -5.2327

Problem: So what does the record say about Log AC50 (M) for COc1ccc2c(c1)CN(C(=O)CCN1CCC(Cc3ccccc3)CC1)CCS2 ?
Solution: -4.4327

Problem: So what does the record say about Log AC50 (M) for C[C@]12CC[C@@H]3c4ccc(O)cc4CC[C@H]3[C@@H]1CC[C@@H]2O ?
Solution: -4.5699

Problem: So what does the record say about Log AC50 (M) for COc1cc(C(=O)NC2CCN(C)CC2)ccc1Nc1ncc2c(n1)N(C1CCCC1)CCC(=O)N2C(C)C ?
Solution: -4.8827

Problem: So what does the record say about Log AC50 (M) for C=C1[C@@H](O)[C@]2(O)OC[C@]34C2[C@]2(C)C(C[C@H]3OC(=O)[C@H](O)[C@@]14O)C(C)=CC(=O)[C@H]2O (some centres unmarked) ?
Solution: -5.1408

Problem: So what does the record say about Log AC50 (M) for C[C@H]1O[C@@H](O[C@H]2[C@@H](O)C[C@H](O[C@H]3[C@@H](O)C[C@H](O[C@H]4CC[C@@]5(C)[C@H](CC[C@@H]6[C@@H]5C[C@@H](O)[C@]5(C)[C@@H](C7=CC(=O)OC7)CC[C@]65O)C4)O[C@@H]3C)O[C@@H]2C)C[C@H](O)[C@@H]1O ?
Solution: -6.3327

Problem: So what does the record say about Log AC50 (M) for C=CC(=O)N1CCC[C@@H](n2nc(-c3ccc(Oc4ccccc4)cc3)c3c(N)ncnc32)C1 ?
Solution: -5.0327

Problem: So what does the record say about Log AC50 (M) for N=c1c2c(-c3ccccc3)c(-c3ccccc3)n(Cc3ccccc3)c2ncn1C1CCC(O)CC1 (centres unmarked) ?
Solution: -5.3045

Problem: So what does the record say about Log AC50 (M) for COc1cc(OC2CCN(C)CC2)ccc1Nc1ncc2c(n1)n(C1CCCC1)c(=O)n2C ?
Solution: -5.1699

Problem: So what does the record say about Log AC50 (M) for Oc1cc(O)cc(CCCCC/C=C\CCCCCCCc2cc(O)cc(O)c2)c1 ?
Solution: -4.4327
